Below, each entry is listed alongside its reported cytotoxicity at 10 µM.
- Method: Toxicity liver stage against HepG2, at 10uM
- Format: cell-based
- Design: test concentration 10 uM, cell line HepG2-A16-CD81EGFP
- Experimental context: human, HepG2-A16-CD81EGFP cells; read-out: INHIBITION

Compound	cytotoxicity at 10 µM, %
O=C(NCCCO)C1(CC2CC(c3ccc(F)cc3)=NO2)CCOCC1 (stereo unspecified)	1.41
Cc1nn(CC(=O)N2CCCN(c3cccnn3)CC2)c(C)c1Cl	-1.2
CC1CN(C(=O)CN(Cc2ccccc2Br)C2CC2)CCO1 (stereo unspecified)	2.38
c1cc(CN2C[C@H](OCC3CCOCC3)[C@H]3COC[C@H]32)cs1	9.86
COCc1cccc(CNCc2c(C(C)C)nn(C)c2N(C)C)c1	-7.16
CC(C)(CN1C[C@H](Nc2ncccn2)[C@@H](C2CC2)C1)N1CCOCC1	5.41

###

Below, each entry is listed alongside its reported cytotoxicity at 10 µM.
- Method: Toxicity liver stage against HepG2, at 10uM
- Assay type: cell-based
- Design: test concentration 10 uM, cell line HepG2-A16-CD81EGFP
- Experimental context: human, HepG2-A16-CD81EGFP cells; read-out: INHIBITION

Molecule	Result unit	cytotoxicity at 10 µM
CN(CCN1CCCC1)c1nccc(N2CCN[C@H]3CS(=O)(=O)C[C@H]32)n1	%	-8.93
O=C(Cc1cccc(F)c1F)N1CCOC(c2cccc(O)c2)C1 (configuration not stated)	%	0.0788
CC(=O)N1CCn2c(COCc3csc(C)n3)cnc2C1C (configuration not stated)	%	-12.5
CCOc1cc(C(=O)N2CCCC(c3noc(C(C)C)n3)C2)ccn1 (configuration not stated)	%	-6.73
CC(NC(=O)OC(C)(C)C)c1nnc(S(=O)(=O)Cc2ccc(Cl)cc2)o1 (configuration not stated)	%	-8.92
Cc1cc(CCC(=O)N2CCCC2)nc(C2CCCN2)n1 (configuration not stated)	%	5.91
CN1CCCC1c1cncc(C(=O)NCCN2CCCC2)n1 (configuration not stated)	%	8.6
CC(NC(=O)N1CCN(c2ccc(Cl)cc2)CC1)C(=O)N1CCSCC1 (configuration not stated)	%	25.4
COc1ccc(C)cc1CC(=O)NS(=O)(=O)c1ccc(C(N)=O)cc1	%	8
Fc1ccccc1-c1nc(CNCCn2cccn2)cs1	%	-9.53
C[C@@H]1CN(S(=O)(=O)c2ccc(F)cc2F)C[C@]1(C)O	%	-3.36
Cc1cccc(CN2C[C@@H]3CN(C(=O)c4ccnnc4)C[C@@H]3C2=O)c1	%	-6.89
CCn1cc(Cl)c(C(=O)Nc2ccc3c(c2)C(C)(C)C(=O)N3C)n1	%	9.21
CCCNC(=O)c1nc2c(o1)CN(c1ncccn1)C2	%	1.95
COc1ccc(C)cc1-n1cnnc1CC1CCNCC1	%	-11.4
COCCCNC(=O)NCc1cccn1Cc1ccccc1C	%	2.88
Cn1cc(CN2CCCN(C(=O)c3ccccn3)CC2)cn1	%	-0.514
Cc1cccc(NC(=O)C2CC(=O)n3cnnc3S2)c1 (configuration not stated)	%	2.37
CCc1ncc(C(=O)N2CCN(C(=O)COc3ccccc3)CC2)cn1	%	-12.8
CCc1nc(Cn2nc(C3CCNCC3)n(-c3ccccc3)c2=O)cs1	%	-1.22
COCCN1CCc2cc(C(=O)NCC3CC3)c(NC(C)C)nc2CC1	%	73.6
CN(CC(=O)Nc1ccncc1)CC1CCCN1c1cccnn1 (configuration not stated)	%	-2.01
CSCc1cc(F)ccc1CNC(=O)N1CCCC1	%	5.58
O=C1CC(C(=O)O)C2(CCN(C(=O)NCc3ccc(Cl)cc3)CC2)N1 (configuration not stated)	%	7.66
Cn1c(C2CCCN2C(=O)CN2CCCC2=O)nc2ccccc21 (configuration not stated)	%	-3.47
O=C(COCC(F)(F)F)N1CCCC(n2cccn2)C1 (configuration not stated)	%	-6.28
CCCc1noc(CN2CCOCC2C)n1 (configuration not stated)	%	6.3
Cc1nn(C)c(C)c1CC(=O)NCc1cccnc1OC1CCCC1	%	-0.527
N#CCCN(C(=O)CN1CCCC1C1CCCCC1)c1ccccc1 (configuration not stated)	%	-12.1
CC(C)C(=O)N1CCOC2(COCCN(c3ncccn3)C2)C1 (configuration not stated)	%	-114
O=C(O)c1cc2n(n1)CCCN(C(=O)CCc1c[nH]c3ccccc13)C2	%	3.77
COc1cc2ncn(Cc3ncc[nH]3)c(=O)c2cc1OC	%	5.56
CC(Cn1cccn1)NC(=O)N1CCN(Cc2ccsc2)CC1 (configuration not stated)	%	-11.6
Cc1cc(NC(=O)CN2CCN(c3nccs3)C(C)C2)n(C)n1 (configuration not stated)	%	-4.2
CNS(=O)(=O)c1ccc(CNC(=O)Nc2cn[nH]c2)cc1	%	-8.75
N#Cc1ccc(C(=O)N2C[C@H](OCc3cccnc3)[C@H]3COC[C@H]32)cc1	%	5.38
Nc1ncc(-c2ccc(NC(=O)[C@@H]3CCCCN3)cc2)cn1	%	-4.44

###

- Method: Toxicity liver stage against HepG2, at 10uM
- Format: cell-based
- Design: test concentration 10 uM, cell line HepG2-A16-CD81EGFP
- Experimental context: human, HepG2-A16-CD81EGFP cells; read-out: INHIBITION
Below, each entry is listed alongside its reported cytotoxicity at 10 µM.

Structure notation	cytotoxicity at 10 µM / %
Cc1ccc(N2C[C@@H]3OCCN(CC4CC4)[C@@H]3C2)nn1	3.59
CCOc1cc(C(=O)n2cc(C)cn2)cc(OCC)c1OCC	8.29
O=C(COc1ccccc1)NS(=O)(=O)Cc1ccccc1	-12.3
C=C(C)CN1CCC(NC(=O)Nc2ccc(F)c(C(=O)NC)c2)CC1	5.58

###

- Method: Toxicity liver stage against HepG2, at 10uM
- Format: cell-based
- Set-up: test concentration 10 uM, cell line HepG2-A16-CD81EGFP
- Experimental context: human, HepG2-A16-CD81EGFP cells; read-out: INHIBITION
Below, each entry is listed alongside its reported cytotoxicity at 10 µM.

Compound	cytotoxicity at 10 µM
O=C(CSC1CCc2ccccc2NC1=O)NCCc1ccc(O)cc1 (stereo not drawn)	-4.25%
COCCN(Cc1ccc(F)cc1Cl)C(=O)c1cccc[n+]1[O-]	8.81%
CCOC(=O)c1coc(N2CCN(Cc3ccc(C)cc3)C(=O)C2)n1	-0.0261%

###

Below, each entry is listed alongside its reported cytotoxicity at 10 µM.
- Method: Toxicity liver stage against HepG2, at 10uM
- Format: cell-based
- Set-up: test concentration 10 uM, cell line HepG2-A16-CD81EGFP
- Experimental context: human, HepG2-A16-CD81EGFP cells; read-out: INHIBITION

Compound	cytotoxicity at 10 µM [%]
CNC(=O)NC(=O)COc1c(C(C)=O)ccc(Cl)c1Cl	26.6
O=C1CN(C(=O)C2CN(c3ccccc3)CCO2)CCN1 (stereo not given)	1.91
CC(C)NC(=O)[C@@H]1CN(Cc2nccs2)C[C@H]2OCC[C@H]21	-93.5
CCn1cc(C(=O)NCc2csc(Br)c2)cn1	4.84
COc1cc(F)ccc1C(C(=O)O)N(C)Cc1ccon1 (stereo not given)	-5.31
Cn1cc(CN2CCC(F)(F)C3(CCN(c4cccnc4)C3)C2)cn1 (stereo not given)	3.89
CCOCC1CN(C(=O)c2cccs2)Cc2cnn(CC3CC3)c21 (stereo not given)	-1
O=C(NCC1CCCN(Cc2cccc3nonc23)C1)c1ccc[nH]1 (stereo not given)	-42.2
CCOc1ccc(NC(=O)c2cccc(OC)c2OC)cc1	1.64
CCS(=O)(=O)N1CCc2c(cccc2NC(=O)NCCOC)C1	2.17
CCC(NC(=O)c1ccc(COC)o1)c1nc(C(F)(F)F)cs1 (stereo not given)	2.91
CCc1cc(C(=O)N2CCCC2c2nc(O)cc(CC)n2)on1 (stereo not given)	-7
CN(C)CC1CN(Cc2cccc(C#N)c2)Cc2nccn2C1 (stereo not given)	-124
COCCN(C(=O)c1ccc(OC)cc1)c1ccc(C#N)cc1	7.81
CN(C)c1ncc(-c2ccc(C(N)=O)cc2)c(C2CCNC2)n1 (stereo not given)	-0.892

###

- Method: Toxicity liver stage against HepG2, at 10uM
- Type: cell-based
- Design: test concentration 10 uM, cell line HepG2-A16-CD81EGFP
- Experimental context: human, HepG2-A16-CD81EGFP cells; read-out: INHIBITION
Below, each entry is listed alongside its reported cytotoxicity at 10 µM.

Molecule	Result unit	cytotoxicity at 10 µM
Cc1cc(O)n(-c2ccc3nnc(C)n3n2)n1	%	9.24
Cc1cc(C(=O)N2C[C@@H]3[C@@H](C2)OCC(=O)N3CC2CC2)no1	%	-10.4
CC(C)NC(=O)CNC(C)c1c(F)cccc1Cl (configuration not stated)	%	7.22
CC(C)(CN)NS(=O)(=O)c1cccc(F)c1F	%	-5.7
CCN1CCN(C(=O)COc2ccc(CN(C)S(C)(=O)=O)cc2)CC1	%	3.3
CC(C)n1cc(CN(Cc2ccsc2)CC2CCCO2)cn1 (configuration not stated)	%	-7.89
c1cc(CN2CCCC2)ccc1CNc1cncc2nnnn12	%	3.99
O=C(c1ccccc1F)N1CCN(CCCn2cncn2)CC1	%	2.99
COc1ccc(OC)c(-n2nnnc2SCC2CCCN(C)C2)c1 (configuration not stated)	%	1.28
Cc1cccc(CN2CCOC(C)(C(=O)N3CCOCC3)C2)n1 (configuration not stated)	%	-9.19
CC(C)CC(C)NC1CCN(c2ccc(-c3cscn3)cc2)CC1 (configuration not stated)	%	-50.6
O=C(c1sccc1Br)N(Cc1cccnc1)C1CC1	%	-4.07
